tested on: Streptococcus pyogenes; experiment: Antimicrobial activity against Streptococcus pyogenes MTCC 443 by broth microdilution method; type: functional
Recorded endpoint: MIC (µg/mL)
Numeric answer only, unit µg/mL assumed.

COc1ccc(-c2cc(=O)n(-c3cccc(Cl)c3)c(N3CCCC3)c2/N=N/c2ccccc2[N+](=O)[O-])cc1 | 100
COc1ccc(-c2cc(N3CCCC3)n(-c3cccc(Cl)c3)c(=O)c2/N=N/c2cc(Cl)ccc2Cl)cc1 | 500

Give MIC for COc1ccc(-c2cc(=O)n(-c3cccc(Cl)c3)c(N3CCCC3)c2/N=N/c2ccc(Cl)cc2)cc1
500

Return reported MIC. Input compound: COc1ccc(-c2cc(=O)n(-c3cccc(Cl)c3)c(N3CCCC3)c2/N=N/c2cccc(C)c2)cc1
200

Return the recorded MIC value; entry: COc1ccc(-c2cc(=O)n(-c3cccc(Cl)c3)c(N3CCCC3)c2/N=N/c2ccc([N+](=O)[O-])cc2)cc1
250

Consider the compound O=C(O)c1cn(C2CC2)c2cc(N3CCNCC3)c(F)cc2c1=O and give its recorded MIC.
50

Output MIC of COc1ccc(-c2cc(N3CCCC3)n(-c3cccc(Cl)c3)c(=O)c2)cc1
500

Give me measured MIC, please, for this compound: COc1ccc(-c2cc(=O)n(-c3cccc(Cl)c3)c(N3CCCC3)c2/N=N/c2ccc(Cl)c(Cl)c2)cc1
500

###

system: Escherichia coli; test: Antimicrobial activity against Escherichia coli MTCC 442 by broth microdilution method; format: functional
Consider the following compounds and their measured MIC readings.
All answers are understood in µg/mL, so give the number only.

COc1ccc(-c2cc(=O)n(-c3cccc(Cl)c3)c(N3CCCC3)c2/N=N/c2ccc([N+](=O)[O-])cc2Cl)cc1 | 250
COc1ccc(-c2cc(N3CCCC3)n(-c3cccc(Cl)c3)c(=O)c2/N=N/c2cccc([N+](=O)[O-])c2)cc1 | 200
COc1ccc(-c2cc(=O)n(-c3cccc(Cl)c3)c(N3CCCC3)c2/N=N/c2ccccc2)cc1 | 250
COc1ccc(-c2cc(N3CCCC3)n(-c3cccc(Cl)c3)c(=O)c2)cc1 | 250
COc1ccc(-c2cc(N3CCCC3)n(-c3cccc(Cl)c3)c(=O)c2/N=N/c2ccccc2)cc1 | 62.5
COc1ccc(-c2cc(N3CCCC3)n(-c3cccc(Cl)c3)c(=O)c2/N=N/c2ccccc2C)cc1 | 200

Retrieve MIC measured for COc1ccc(-c2cc(=O)n(-c3cccc(Cl)c3)c(N3CCCC3)c2/N=N/c2ccccc2Cl)cc1 and print it.
250

Return MIC (reported value) for this compound: COc1ccc(-c2cc(=O)n(-c3cccc(Cl)c3)c(N3CCCC3)c2/N=N/c2ccc(Cl)cc2)cc1
100

###

tested on: Escherichia coli; assay: Antimicrobial activity against Escherichia coli MTCC 442 by broth microdilution method; assay type: functional
Threshold 200 µg/mL. MIC below it: TRUE. MIC at it or above: FALSE.

Lab note: MIC threshold 200 µg/mL. Does this compound come in strictly under it? COc1ccc(-c2cc(=O)n(-c3cccc(Cl)c3)c(N3CCCC3)c2/N=N/c2cccc(Cl)c2)cc1
FALSE

Please indicate whether the reported MIC of O=C(O)c1cn(C2CC2)c2cc(N3CCNCC3)c(F)cc2c1=O is strictly below 200 µg/mL.
TRUE

Does this compound meet the criterion MIC < 200 µg/mL? COc1ccc(-c2cc(N3CCCC3)n(-c3cccc(Cl)c3)c(=O)c2Cn2cncn2)cc1
TRUE

API: query returns whether the compound falls strictly under 200 µg/mL in MIC. Query: COc1ccc(-c2cc(N3CCCC3)n(-c3cccc(Cl)c3)c(=O)c2/N=N/c2ccc([N+](=O)[O-])cc2)cc1
FALSE

Does the reported MIC of the following compound sit strictly below 200 µg/mL? COc1ccc(-c2cc(=O)n(-c3cccc(Cl)c3)c(N3CCCC3)c2/N=N/c2ccc(Cl)cc2[N+](=O)[O-])cc1
FALSE

Just wondering, is MIC of COc1ccc(-c2cc(N3CCCC3)n(-c3cccc(Cl)c3)c(=O)c2/N=N/c2ccc(Cl)cc2[N+](=O)[O-])cc1 below 200 µg/mL?
FALSE

API: query returns whether the compound falls strictly under 200 µg/mL in MIC. Query: COc1ccc(-c2cc(N3CCCC3)n(-c3cccc(Cl)c3)c(=O)c2/N=N/c2cccc(Cl)c2)cc1
FALSE

###

# key: entry, value: MIC
tested on: Escherichia coli; assay: Antimicrobial activity against Escherichia coli MTCC 442 by broth microdilution method; assay type: functional
The reply should contain only the number, in µg/mL.

State its MIC for this compound: COc1ccc(-c2cc(N3CCCC3)n(-c3cccc(Cl)c3)c(=O)c2/N=N/c2cc(Cl)ccc2Cl)cc1
250

###

system: Mycobacterium tuberculosis; experiment: Antimicrobial activity against Mycobacterium tuberculosis H37Rv; format: functional; details: Mycobacterium tuberculosis, H37Rv
Recorded endpoint: log10(MIC) (log10 of the value in µg/mL)
A value of 2 here means MIC of 100 in µg/mL, since values are log10.

Below: 5 molecules and their reported log10(MIC).
CO[C@H]1/C=C/O[C@@]2(C)Oc3c(C)c(O)c4c(O)c(c(/C=N/N5CCN(C)CC5)c(O)c4c3C2=O)NC(=O)/C(C)=C\C=C\[C@H](C)[C@H](O)[C@@H](C)[C@@H](O)[C@@H](C)[C@H](OC(C)=O)[C@@H]1C [RIFAMPIN] | 1.60
COc1ccc(-c2cc(N3CCCC3)n(-c3cccc(Cl)c3)c(=O)c2/N=N/c2ccc(Cl)c(Cl)c2)cc1 | 2.40
COc1ccc(-c2cc(=O)n(-c3cccc(Cl)c3)c(N3CCCC3)c2/N=N/c2ccc(Cl)cc2[N+](=O)[O-])cc1 | 2.70
COc1ccc(-c2cc(=O)n(-c3cccc(Cl)c3)c(N3CCCC3)c2/N=N/c2cc(Cl)ccc2Cl)cc1 | 2.00
COc1ccc(-c2cc(N3CCCC3)n(-c3cccc(Cl)c3)c(=O)c2Cn2cncn2)cc1 | 2.70

Write down log10(MIC) measured for item COc1ccc(-c2cc(N3CCCC3)n(-c3cccc(Cl)c3)c(=O)c2/N=N/c2ccc(Cl)cc2[N+](=O)[O-])cc1
3.00

Input COc1ccc(-c2cc(N3CCCC3)n(-c3cccc(Cl)c3)c(=O)c2)cc1 , output reported log10(MIC).
2.70

###

test system: Streptococcus pyogenes; assay: Antimicrobial activity against Streptococcus pyogenes MTCC 443 by broth microdilution method; assay type: functional
Recorded MIC by entry
Kindly provide the numeric value in µg/mL only, without the unit symbol.

COc1ccc(-c2cc(N3CCCC3)n(-c3cccc(Cl)c3)c(=O)c2/N=N/c2ccccc2C)cc1 | 500
COc1ccc(-c2cc(=O)n(-c3cccc(Cl)c3)c(N3CCCC3)c2/N=N/c2ccccc2)cc1 | 250
COc1ccc(-c2cc(N3CCCC3)n(-c3cccc(Cl)c3)c(=O)c2CN2CCCC2)cc1 | 500
COc1ccc(-c2cc(N3CCCC3)n(-c3cccc(Cl)c3)c(=O)c2/N=N/c2ccc(C)cc2)cc1 | 200
COc1ccc(-c2cc(=O)n(-c3cccc(Cl)c3)c(N3CCCC3)c2/N=N/c2ccccc2C)cc1 | 500

Tell me its MIC given COc1ccc(-c2cc(=O)n(-c3cccc(Cl)c3)c(N3CCCC3)c2/N=N/c2cccc([N+](=O)[O-])c2)cc1 as the entry.
250

Return MIC (reported value) for this compound: COc1ccc(-c2cc(N3CCCC3)n(-c3cccc(Cl)c3)c(=O)c2/N=N/c2ccc(Cl)c(Cl)c2)cc1
500

Identify measured MIC corresponding to COc1ccc(-c2cc(=O)n(-c3cccc(Cl)c3)c(N3CCCC3)c2/N=N/c2ccc([N+](=O)[O-])cc2Cl)cc1
200

###

A collection of compounds and their measured MIC
test system: Escherichia coli; experiment: Antimicrobial activity against Escherichia coli MTCC 442 by broth microdilution method; assay type: functional
Report as a plain number; the unit µg/mL is understood.

Answer with the recorded MIC of COc1ccc(-c2cc(N3CCCC3)n(-c3cccc(Cl)c3)c(=O)c2/N=N/c2c(Cl)cc([N+](=O)[O-])cc2Cl)cc1 only.
250

State its MIC: COc1ccc(-c2cc(N3CCCC3)n(-c3cccc(Cl)c3)c(=O)c2/N=N/c2cccc(C)c2)cc1
250

For the compound COc1ccc(-c2cc(N3CCCC3)n(-c3cccc(Cl)c3)c(=O)c2/N=N/c2ccc([N+](=O)[O-])cc2Cl)cc1 , report MIC.
250

Fill in MIC for record CC1(C)S[C@@H]2[C@H](NC(=O)[C@H](N)c3ccccc3)C(=O)N2[C@H]1C(=O)O [AMPICILLIN]
100

###

test system: Streptococcus pyogenes; assay: Antimicrobial activity against Streptococcus pyogenes MTCC 443 by broth microdilution method; type: functional
Recorded endpoint: MIC (µg/mL)
Write it as a number; the unit µg/mL goes unstated.

The following molecules have reported results that may help.
COc1ccc(-c2cc(Cl)n(-c3cccc(Cl)c3)c(=O)c2)cc1 | 200
COc1ccc(-c2cc(=O)n(-c3cccc(Cl)c3)c(N3CCCC3)c2/N=N/c2ccc(C)cc2)cc1 | 200
COc1ccc(-c2cc(N3CCCC3)n(-c3cccc(Cl)c3)c(=O)c2/N=N/c2ccccc2)cc1 | 250
COc1ccc(-c2cc(N3CCCC3)n(-c3cccc(Cl)c3)c(=O)c2/N=N/c2ccc(Cl)cc2)cc1 | 500
COc1ccc(-c2cc(N3CCCC3)n(-c3cccc(Cl)c3)c(=O)c2/N=N/c2cccc(C)c2)cc1 | 200
COc1ccc(-c2cc(=O)n(-c3cccc(Cl)c3)c(N3CCCC3)c2/N=N/c2c(Cl)cc([N+](=O)[O-])c(Cl)c2Cl)cc1 | 200
COc1ccc(-c2cc(N3CCCC3)n(-c3cccc(Cl)c3)c(=O)c2/N=N/c2c(Cl)cc([N+](=O)[O-])cc2Cl)cc1 | 200

Turning now to a further molecule:
Give the reported value of MIC for this record: COc1ccc(-c2cc(N3CCCC3)n(-c3cccc(Cl)c3)c(=O)c2/N=N/c2ccccc2[N+](=O)[O-])cc1
100
